All figures here come from PubChem BioAssay AID1159580.

Reported normalized growth is given for each of the following molecules.
test: chemical genetic growth profiling, strain panel (AID 1159580);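 also: tested at 20 µM; growth read once vehicle control cultures reached saturation at 30 °C; 1 = growth at the plate median or of vehicle wells; lower values mean less growth of the strain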; conditions: S. cerevisiae deletion strains, growth OD, locus YKL190W, strain CNB1, active compounds read low
Screen size: about 5,500 compounds; about 2,000 (36%) were called active. Inconclusive results (about 18%) are left out. This is one part of the list.

In the examples that follow, each entry is paired with its recorded normalized growth.
{"columns": ["Molecule", "normalized growth"],
 "data": [
  ["c1ccc2c(c1)CN1CCCC1=N2", "1.01 (inactive)"],
  ["COC(=O)CCC(C)C1CCC2C3CC[C@@H]4C[C@H](O)CC[C@]4(C)C3C[C@H](O)[C@]12C (some centres undefined)", "1.02 (inactive)"],
  ["CCC(=O)c1c(C)c(C)c(C)c(C)c1C", "0.983 (inactive)"],
  ["CC(C)CCCC(C)C1CCC2C3CC[C@H]4CCCC[C@]4(C)C3CC[C@]12C (some centres undefined)", "0.98 (inactive)"],
  ["CCC(=O)Nc1ccc(Cl)c(Cl)c1", "1 (inactive)"],
  ["C/C(=N/Nc1c(Cl)cc(Cl)cc1Cl)c1cc(F)ccc1OC(=O)c1ccccc1F", "1.03 (inactive)"],
  ["Nc1ccncc1", "1.01 (inactive)"],
  ["N#C/C(=C\\c1cccc(O)c1)C(=O)O", "0.99 (inactive)"],
  ["CC(CCC(=O)O)[C@H]1CCC2C3C[C@H](O)[C@@H]4C[C@H](O)CC[C@]4(C)C3CC[C@@]21C (some centres undefined)", "1.07 (inactive)"],
  ["O=C(O)c1ccccc1C(=O)Nc1ccc(S(=O)(=O)Nc2nccs2)cc1", "1 (inactive)"]
]}

// CC1=C2[C@H]3OC(=O)[C@@H](C)[C@@H]3CC[C@@]2(C)C=CC1=O : normalized growth value = 1.01 (inactive)

The reported normalized growth of the molecule CN1CCN(C2=Nc3ccccc3Oc3ccc(Cl)cc32)CC1 was 1 (inactive)

Measured normalized growth of Cc1nc2ccccn2c(=O)c1CCN1CCC(C(=O)c2ccc(F)cc2)CC1 : 1.02 (inactive)

The molecule listed as CC(=O)Nc1nnc(S(N)(=O)=O)s1 has a reported normalized growth of 0.569 (active)

Short answer for Cc1cc(CN2CC(C)OC(C)C2)cc(C)c1O (centres undefined) : normalized growth was 0.974 (inactive)

// S=P(N1CC1)(N1CC1)N1CC1 : normalized growth value = 1 (inactive)

Lab note: CC12CC3CC(C)(C1)CC(N)(C3)C2 gave normalized growth of 0.999 (inactive)

Sure, the documented normalized growth for CC(=O)O[C@H]1C[C@@H](OC(C)=O)C(C)(C)C2CC(=O)[C@]3(C)C(CC[C@@]4(C)[C@H](c5ccoc5)OC(=O)[C@H]5O[C@]543)[C@]21C (some centres undefined) is 0.998 (inactive)

Field normalized growth (entry COc1cc2c(cc1O)C(Cc1ccc(O)cc1)N(C)CC2 (centres undefined) ) reads 1.02 (inactive)

* * *

assay: chemical genetic growth profiling, strain panel (AID 1159580); details: S. cerevisiae deletion strains, growth OD, locus YNL250W, strain rad50, active compounds read low
About 2,000 (36%) of roughly 5,500 compounds were called active. Not shown: some 18% with an inconclusive outcome. The list shows a part of the results.
Listing of recorded normalized growth by entry.
# print the numeric value only

Illustrative cases are given below, each with its answer.
{"columns": ["Compound", "normalized growth"],
 "data": [
  ["N[C@@H](Cc1cc(I)c(Oc2cc(I)c(O)c(I)c2)c(I)c1)C(=O)O", 1.04],
  ["CC(CN(C)C)CN1c2ccccc2CCc2ccccc21 (stereo unspecified)", 1.03]
]}

The compound listed as N[C@H](Cc1ccccc1)C(=O)O shows normalized growth equal to 1

Entry under test: CCC(=O)c1ccc2c(c1)N(CC(C)N(C)C)c1ccccc1S2 (stereo unspecified) . Its normalized growth was 1.01

GET /value?item= CN1CC(CNC(=O)OCc2ccccc2)CC2c3cccc4c3c(cn4C)CC21 (stereo unspecified) &field=normalized growth returns 0.971

For reference, reported normalized growth for NC(Cc1ccc(F)cc1)C(=O)O (stereo unspecified) stands at 1.02

* * *

test: chemical genetic growth profiling, strain panel (AID 1159580);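 also: tested at 20 µM; growth read once vehicle control cultures reached saturation at 30 °C; 1 = growth at the plate median or of vehicle wells; lower values mean less growth of the strain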; conditions: S. cerevisiae deletion strains, growth OD, locus YKL068W, active compounds read low
Among all 5,500 compounds or so, about 2,000 (36%) were called active. Not shown: some 18% with an inconclusive outcome. The list shows a part of the results.
Each item that follows carries a reported normalized growth.
Answer field: number only, no words.

Would you please look over these solved cases?
{"columns": ["Compound", "Assay Value"],
 "data": [
  ["NS(=O)(=O)c1cc2c(cc1Cl)NC(C1CC3C=CC1C3)NS2(=O)=O (configuration not stated)", 0.995],
  ["NC(Cc1ccc(F)cc1)C(=O)O (configuration not stated)", 1.01],
  ["c1ccc2c(c1)CN1CCCC1=N2", 0.984],
  ["CN(C)C(=O)Nc1ccc(Cl)c(Cl)c1", 1],
  ["COc1c2ccccc2nc2occc12", 1.02],
  ["Cc1cc(C)cc(OCC2CNC(=O)O2)c1 (configuration not stated)", 1.02],
  ["N[C@@H](Cc1cc(I)c(Oc2cc(I)c(O)c(I)c2)c(I)c1)C(=O)O", 0.963],
  ["N[C@@H](Cc1cc(I)c(Oc2ccc(O)c(I)c2)c(I)c1)C(=O)O", 1.01],
  ["N[C@H](Cc1cc(I)c(Oc2ccc(O)c(I)c2)c(I)c1)C(=O)O", 0.998],
  ["CCN(CC)CCOC(=O)C(c1ccccc1)c1ccccc1", 0.986]
]}

Entry CC12CC3CC(C)(C1)CC(N)(C3)C2 ; normalized growth = 0.999

According to the records, this compound CCCC(C(=O)OCCN(CC)CC)(c1ccccc1)c1ccccc1 displays normalized growth of 0.995

* * *

test: chemical genetic growth profiling, strain panel (AID 1159580);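 also: tested at 20 µM; growth read once vehicle control cultures reached saturation at 30 °C; 1 = growth at the plate median or of vehicle wells; lower values mean less growth of the strain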; settings: S. cerevisiae deletion strains, growth OD, locus YLR370C, strain arc18, active compounds read low
Among all 5,500 compounds or so, about 2,000 (36%) were called active. About 18% were inconclusive and are not listed. This is one part of the list.
Here the recorded normalized growth is given for each entry.
The reply should be a number, written without any unit.

{"columns": ["Compound", "Measurement Name", "Assay Value"],
 "data": [
  ["CN[C@@H]1[C@H](OC2[C@H](O[C@H]3[C@H](O)[C@@H](O)[C@H](N=C(N)N)[C@@H](O)[C@@H]3N=C(N)N)O[C@@H](C)[C@]2(O)C=O)O[C@@H](CO)[C@H](O)[C@H]1O (some centres undefined)", "normalized growth", 1.02]
]}

Please fill in: normalized growth reported for Cc1cc(C)cc(OCC2CNC(=O)O2)c1 (centres undefined) = 0.963

normalized growth measured on C[C@@H](N)[C@@H](O)c1ccccc1 = 1

response.value for Clc1ccc2c(c1)C(N1CCNCC1)=Nc1ccccc1O2 (field: normalized growth) = 0.993

C[C@H](CCC(=O)O)[C@H]1CCC2C3C(CC[C@@]21C)[C@@]1(C)CC[C@@H](O)C[C@H]1C[C@H]3O (some centres undefined) has a reported normalized growth of 0.993

# normalized growth of C=C1C2=CC(=O)O[C@@H](c3ccoc3)[C@]2(C)CCC1[C@@]1(C)C=CC(=O)C(C)(C)[C@@H]1CC(=O)OC (some centres undefined) = 0.97

The reported value for CN1CCN(C2=Nc3ccccc3Oc3ccc(Cl)cc32)CC1 in terms of normalized growth is 0.967

Reported normalized growth of N[C@@H]1[C@@H](O)[C@H](O)[C@@H](CO)O[C@H]1O : 1.02

// field: normalized growth; key: C=C1C2CC[C@@]3(C)[C@H](c4ccoc4)OC(=O)C[C@]13O[C@H]1CC(O)C(C)(C)C(CC(=O)OC)[C@@]21C (some centres undefined) ; value = 0.981

* * *

test: chemical genetic growth profiling, strain panel (AID 1159580);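 also: tested at 20 µM; growth read once vehicle control cultures reached saturation at 30 °C; 1 = growth at the plate median or of vehicle wells; lower values mean less growth of the strain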; conditions: S. cerevisiae deletion strains, growth OD, locus YDR162C, strain NBP2, active compounds read low
The campaign covered roughly 5,500 compounds. About 2,000 (36%) were called active. Not shown: some 18% with an inconclusive outcome. This is one part of the list.
Measurement Name: normalized growth
Please state the value as a number alone, without comment.

{"columns": ["Compound", "normalized growth"],
 "data": [
  ["COC(=O)c1c(C)cc(OC(=O)c2c(C)cc(O)c(C=O)c2O)c(C)c1O", 0.899]
]}

Consider CC1=C2[C@H]3OC(=O)[C@@H](C)[C@@H]3CC[C@@]2(C)C=CC1=O . Its measured normalized growth is 1.02

Sample C[C@]12C=CC(=O)C=C1CCC1C3C[C@@H](O)[C@](O)(C(=O)CO)[C@@]3(C)C[C@H](O)[C@@]12F (stereo not given in full) ; normalized growth observed: 1

The compound CC1(C)C(O)CC(O)C2(C)C1CC(O)C1(C)C2CCC2(C)C(c3ccoc3)OC(=O)C3OC321 (stereo not given) showed normalized growth equal to 1.01

normalized growth reported for this compound NCC(CC(=O)O)c1ccc(Cl)cc1 (stereo not given) : 1.04

Query COC(=O)CCCOc1ccc(Cl)cc1Cl yields normalized growth of 0.991

Lab note: CN(C)CCOC(=O)C(c1ccccc1)C1(O)CCCC1 (stereo not given) gave normalized growth of 1.01

Entry CC(=O)OCC(=O)[C@@]1(O)[C@H](OC(C)=O)CC2C3CCC4=CC(=O)C=C[C@]4(C)[C@@]3(F)[C@@H](O)C[C@@]21C (stereo not given in full) ; normalized growth = 0.988

Query COc1ccc(C(=O)N2CCCC2=O)cc1 yields normalized growth of 0.968

response.value for COc1ccc(C(=O)CC(=O)c2ccc(C(C)(C)C)cc2)cc1 (field: normalized growth) = 0.851
